- Tested on: SN12C
- PROCEDURE_SUMMARY: NCI tumour cell line growth inhibition, 48 h
Activity calls are given as the source filed them. Cut-off read from the data, not from the text of the source: active = GI50 up to about 1.1 µM and inactive = higher.

COMPOUND: CC(C)OP(=O)(OC(C)C)/C(=N/Nc1ccccc1[N+](=O)[O-])NCCN/C(=N\Nc1ccccc1[N+](=O)[O-])P(=O)(OC(C)C)OC(C)C
GI50: 43.7 µM (inactive)
--
COMPOUND: CC(C)(C)[Si](C)(C)OCC1OC(n2cnc3c(=O)[nH]cnc32)CC1O (stereo not given)
GI50: > 100 µM (inactive)
--
COMPOUND: NC(=S)N/N=C/c1ccc(OC(=O)COc2ccccc2Cl)cn1
GI50: 30.5 µM (inactive)
--
COMPOUND: Cc1cc(N(CCC#N)CCC#N)ccc1/N=N/c1ccc(Br)cc1
GI50: > 36.8 µM (inactive)
--
COMPOUND: COc1cc2oc(=O)ccc2cc1C(=O)CC(C)C
GI50: > 100 µM (inactive)
--
COMPOUND: CCCCCCCC(CC(=O)O)OC(=O)CC(CCCCCCC)OC1OC(C)C(O)C(O)C1OC1OC(C)C(O)C(O)C1O (stereo not given)
GI50: > 100 µM (inactive)
--
COMPOUND: COc1ccc(OC)c2c1C(=O)C(Cl)=C(Cl)C2=O
GI50: 10.7 µM (inactive)
--
COMPOUND: COc1ccc2nc3cc(Cl)ccc3c(NCCCN(CCCl)CCCl)c2c1
GI50: 0.014 µM (active)
--
COMPOUND: Cc1c2n(c(=O)[nH]c1=O)C1OC(CO)C(O2)C1N=[N+]=[N-] (stereo not given)
GI50: > 100 µM (inactive)
--
COMPOUND: O=C(COc1ccccc1)N(C(=O)N1CCN(c2ccccc2)CC1)S(=O)(=O)c1ccccc1
GI50: 53 µM (inactive)
--
COMPOUND: CCOC(=O)[C@@H]1C[C@H]1c1ccc(O)c(O)c1
GI50: 75.5 µM (inactive)
--
COMPOUND: COCc1cc2c(s1)C(=O)C1=C(C2=O)C2(C=C(Br)C(=O)C(Br)=C2)CCN1
GI50: 8.15 µM (inactive)
--
COMPOUND: Cc1cc(NS(=O)(=O)c2ccc(Nc3c4ccccc4nc4c(C(=O)N5CCN(CCO)CC5)ccc(Cl)c34)cc2)no1
GI50: 72.1 µM (inactive)
--
COMPOUND: CCCC(=O)Nc1ccc2c(c1)CN1C(=O)c3ccccc3C1=N2
GI50: > 100 µM (inactive)
--
COMPOUND: O=[N+]([O-])c1ccc(Sc2c3ccccc3nc3ccccc23)cc1
GI50: > 100 µM (inactive)
--
COMPOUND: CCCCCCCCCCCCCC(=O)N(CCCCCCCCC)CC(O)C(O)C(OC1OC(CO)C(O)C(O)C1O)C(O)CO (stereo not given)
GI50: 19.8 µM (inactive)
--
COMPOUND: COc1cc([C@H]2c3cc4c(cc3[C@H](NCc3ccc(F)cc3)C3COC(=O)[C@H]32)OCO4)cc(OC)c1O (stereo not given in full)
GI50: 1.96 µM (inactive)
--
COMPOUND: O=C(c1ccccc1)c1cn(/N=C\c2ccccc2)c(=O)nc1-c1ccccc1
GI50: > 100 µM (inactive)
--
COMPOUND: C=C(C)CNC(=S)N(N)c1ccc(OC)cc1
GI50: 66.8 µM (inactive)
--
COMPOUND: COc1ccc(CC(N)c2ccc(OC)cc2)cc1 (stereo not given)
GI50: > 100 µM (inactive)
